Where do these numbers come from? They come from patent US7674819B2.

A collection of compounds and their measured IC50
Target: androgen receptor (Homo sapiens)
Sequence (P10275 whole entry Q868H, form open): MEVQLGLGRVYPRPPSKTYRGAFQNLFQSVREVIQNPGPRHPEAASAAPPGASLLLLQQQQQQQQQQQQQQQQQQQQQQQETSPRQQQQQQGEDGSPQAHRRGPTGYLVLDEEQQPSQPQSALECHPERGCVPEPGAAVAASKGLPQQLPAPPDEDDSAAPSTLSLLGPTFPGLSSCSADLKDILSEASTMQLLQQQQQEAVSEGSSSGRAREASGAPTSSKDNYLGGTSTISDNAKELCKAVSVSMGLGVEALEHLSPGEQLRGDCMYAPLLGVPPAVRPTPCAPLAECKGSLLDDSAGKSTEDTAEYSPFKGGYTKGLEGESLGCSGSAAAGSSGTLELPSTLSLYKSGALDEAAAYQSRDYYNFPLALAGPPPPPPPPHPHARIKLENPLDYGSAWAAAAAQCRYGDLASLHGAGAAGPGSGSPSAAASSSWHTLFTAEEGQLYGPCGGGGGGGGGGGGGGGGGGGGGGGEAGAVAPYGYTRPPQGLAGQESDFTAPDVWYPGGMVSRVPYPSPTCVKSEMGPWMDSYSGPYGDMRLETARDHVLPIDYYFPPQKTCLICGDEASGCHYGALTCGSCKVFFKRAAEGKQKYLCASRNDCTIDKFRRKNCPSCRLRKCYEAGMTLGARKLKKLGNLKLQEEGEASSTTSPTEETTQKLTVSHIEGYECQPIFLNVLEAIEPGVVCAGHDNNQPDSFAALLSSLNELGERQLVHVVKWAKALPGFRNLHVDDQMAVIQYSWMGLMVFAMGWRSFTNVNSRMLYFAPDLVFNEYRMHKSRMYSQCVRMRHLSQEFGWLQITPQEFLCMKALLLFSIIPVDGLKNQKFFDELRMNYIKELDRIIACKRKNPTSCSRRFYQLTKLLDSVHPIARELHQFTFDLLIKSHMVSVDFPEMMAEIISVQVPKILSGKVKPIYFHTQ
Test: AR Antagonist Cell Assay (MDA-MB453-MMTV clone 54-19, luciferase reporter)
Type: cell-based
Settings: inhibition of induction by DHT (final concentration at 100 μM), 17 hr; compound 0.32-1000 nM; mean of multiple tests; read-out: IC50

-- ask Give the reported IC50 for this compound. CC(c1nnc(-c2ccccc2O)o1)N1CC(C)(C)C(Oc2ccc(C#N)c(C(F)(F)F)c2)C1=O (stereo not drawn)
-- reply 198 nM

-- ask Give the reported IC50 for this compound. COc1ccccc1-c1nnc(CN2CC(C)(C)C(Oc3ccc(C#N)c(C(F)(F)F)c3)C2=O)o1 (stereo not drawn)
-- reply 166 nM

-- ask Give the reported IC50 for this compound. CC1(C)CN(Cc2nnc(-c3ccc(O)cc3)o2)C(=O)C1Oc1ccc(C#N)c(C(F)(F)F)c1 (stereo not drawn)
-- reply 656 nM

-- ask Give the reported IC50 for this compound. CC1(C)CN(S(=O)(=O)c2cccc(C#N)c2)C(=O)C1Oc1ccc(C#N)c(C(F)(F)F)c1 (stereo not drawn)
-- reply 134 nM
